- System: PC-3 prostate
- protocol summary: NCI tumour cell line growth inhibition, 48 h
property label: TGI

Read off the recorded TGI for `Cc1cc(C)n(CN(CCCCO)Cn2nc(C)cc2C)n1`
57.7 µM

Complete the entry with TGI for `N#Cc1ccc2[nH]cc(Cc3c[nH]c4ccc(C#N)cc34)c2c1`
27.8 µM

Note down TGI recorded for `COc1cc(-c2n/c(=C\c3c(O)[nH]c4ccccc34)cc3c2=Nc2ccccc2-3)ccc1F`
48.8 µM

Return TGI for the following molecule: `CCCCCCCCCCCCCCCCCC1=NC(C)(C)CN1C(C)(C)CO`
4.81 µM

Read off the recorded TGI for `NC(CCl)=NCC12CC3CC(CC(C3)C1)C2`
13.3 µM

Give recorded TGI. `C[C@]1(c2nc3c(C(N)=O)cccc3[nH]2)CCCN1`
> 100 µM

Annotate the molecule `Cc1nc(-c2cccnc2)sc1C(=O)CC(=O)C(=O)Nc1cccc(NC(=O)C(=O)CC(=O)c2sc(-c3cccnc3)nc2C)n1` with its measured TGI.
> 100 µM

Provide one value: measured TGI of Cc1cc(OP2(=O)NCc3ccncc3O2)ccc1Cl (stereo unspecified)
> 100 µM

Look up and state reported TGI for `O=C(CSc1nc2ccc(I)cc2c(=O)n1Cc1ccccc1)NNC(=S)Nc1ccccc1`
> 100 µM

Return TGI (reported value) for this molecule: `CSc1c(C(N)=S)c(N)nn1-c1ccccc1`
> 100 µM

Supply reported TGI belonging to this molecule: COc1nc2ccc(Cl)c(C(O)c3ccccc3)c2nc1OC (stereo unspecified)
> 100 µM

# return recorded TGI for input `O=P(O)(O)c1ccc2c(c1)OCCOCCOCCOCCO2`
> 100 µM

Give me measured TGI, please, for this molecule: `CC[C@H](C)[C@H](NC(=O)c1ncccn1)C(=O)N(C)[C@H](C[C@@H](OC(C)=O)c1nc(C(=O)N[C@@H](Cc2ccccc2)C[C@H](C)C(=O)OC)cs1)C(C)C`
> 25 µM

Quickly give me recorded TGI for `CCOc1cc2c(cc1O)C=C[C@@H]1[C@@H]2CC[C@]2(C)[C@@H](O)CC[C@@H]12`
> 100 µM

Write down TGI measured for item `COc1cc(/C=C2\N=C(c3ccccc3)N(c3nc4ccccc4s3)C2=O)cc(OC)c1OC`
> 100 µM

# return recorded TGI for entry `COc1ccc(OC)c(-c2cc(-c3ccc(Cl)cc3)nn2-c2ccccc2)c1`
> 100 µM

For the molecule `Cc1cn(CC2(CO)CCC2)c(=O)[nH]c1=O` , give its reported TGI.
> 100 µM

Answer with the recorded TGI of `O=S(=O)(O)c1ccc(N=Nc2ccc(N=Nc3c(O)ccc4ccc(S(=O)(=O)O)cc34)cc2)cc1` only.
> 100 µM

Let me know recorded TGI for `COc1ccc2c(c1)/C(=C\c1c(-c3ccccc3)nc3sccn13)C(=O)N2` , thanks.
> 35.6 µM

Supply TGI value. Item: COP(=O)(/C=C/C(NC(=O)C(Cl)(Cl)Cl)c1ccccc1)OC (stereo unspecified)
> 100 µM

// Input: `NC(=O)c1ccc(I)c([N+](=O)[O-])c1` . Output its TGI only.
> 100 µM
